Target: human topo IIα (Homo sapiens, UniProt P11388)
Construct: purchased Inspiralis (Norwich, UK)
Sequence (P11388 whole entry): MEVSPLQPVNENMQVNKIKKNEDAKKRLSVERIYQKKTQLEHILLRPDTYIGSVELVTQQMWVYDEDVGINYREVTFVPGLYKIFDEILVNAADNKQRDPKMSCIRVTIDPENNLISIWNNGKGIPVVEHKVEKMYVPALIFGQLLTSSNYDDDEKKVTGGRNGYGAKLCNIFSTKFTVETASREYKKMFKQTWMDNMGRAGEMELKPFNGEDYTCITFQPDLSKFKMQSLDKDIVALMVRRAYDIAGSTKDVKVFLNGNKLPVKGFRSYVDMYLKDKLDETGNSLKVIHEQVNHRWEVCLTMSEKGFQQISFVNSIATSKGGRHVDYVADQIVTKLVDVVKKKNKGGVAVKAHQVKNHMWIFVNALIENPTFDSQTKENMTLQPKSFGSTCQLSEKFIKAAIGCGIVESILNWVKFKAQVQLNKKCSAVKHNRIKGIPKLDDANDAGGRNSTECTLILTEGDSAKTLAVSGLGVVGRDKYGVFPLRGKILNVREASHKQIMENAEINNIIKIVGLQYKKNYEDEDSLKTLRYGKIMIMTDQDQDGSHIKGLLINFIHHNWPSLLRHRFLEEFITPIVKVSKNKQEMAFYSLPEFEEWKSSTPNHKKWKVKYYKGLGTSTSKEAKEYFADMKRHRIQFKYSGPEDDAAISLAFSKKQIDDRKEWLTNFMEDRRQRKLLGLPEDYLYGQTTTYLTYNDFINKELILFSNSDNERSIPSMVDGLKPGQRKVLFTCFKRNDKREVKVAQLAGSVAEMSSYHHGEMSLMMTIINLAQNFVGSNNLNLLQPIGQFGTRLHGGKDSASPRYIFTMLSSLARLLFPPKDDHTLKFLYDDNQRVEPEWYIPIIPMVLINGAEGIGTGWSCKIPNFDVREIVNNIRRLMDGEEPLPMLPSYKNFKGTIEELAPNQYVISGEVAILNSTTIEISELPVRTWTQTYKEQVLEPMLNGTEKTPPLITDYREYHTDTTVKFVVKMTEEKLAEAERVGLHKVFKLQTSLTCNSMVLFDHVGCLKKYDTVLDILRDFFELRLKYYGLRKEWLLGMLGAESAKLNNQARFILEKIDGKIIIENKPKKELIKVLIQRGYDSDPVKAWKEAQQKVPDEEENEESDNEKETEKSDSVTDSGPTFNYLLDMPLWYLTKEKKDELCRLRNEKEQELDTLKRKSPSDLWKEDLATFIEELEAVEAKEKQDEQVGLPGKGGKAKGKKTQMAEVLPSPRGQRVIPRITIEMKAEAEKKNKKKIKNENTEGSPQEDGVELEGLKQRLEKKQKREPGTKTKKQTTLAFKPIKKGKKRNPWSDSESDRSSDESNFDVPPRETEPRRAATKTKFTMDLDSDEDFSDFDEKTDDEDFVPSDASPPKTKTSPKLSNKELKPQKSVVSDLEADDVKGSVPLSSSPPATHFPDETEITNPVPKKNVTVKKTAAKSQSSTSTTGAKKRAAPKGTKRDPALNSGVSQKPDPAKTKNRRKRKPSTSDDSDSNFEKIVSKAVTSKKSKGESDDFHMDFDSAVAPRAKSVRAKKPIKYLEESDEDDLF
Assay: competitive ATPase assay at different ATP concentrations
Assay type: biochemical
Settings: c(ATP) 0.025
Method: Then, we performed the competitive ATPase assay for compound 1, to investigate how our class of compounds affects the ATP hydrolysis in dependence of ATP concentration. Assay was performed at 8 different concentrations of ATP and compound 1. […] The assay was carried out in two parallels. […] In addition, we also calculated the IC50 values of compound 1 vs. different concentrations of the ATP. […]
MEASURED_METRIC: pIC50
Please treat pIC50 as minus the base-10 logarithm of the molar concentration.

### Prompt I'm curious: which pIC50 was measured for `Cc1nc(N)sc1-c1csc(Nc2ccc(C(F)(F)F)cc2)n1` tested on human topo IIα (Homo sapiens, UniProt P11388)?
### Response 5.42
